Sourced from paper PMC5540273

# Test system: FGR;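 further: KINOMEscan kinase panel screen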
# Assay Context: concentration: 1 μM, replicates: in singlicate; n = 1
Property Measured: %Inh

## Task Consider the compound Cc1cccc(NC(=O)Nc2ccc(Oc3ncnc4ccn(C)c34)cc2)c1 and give its recorded %Inh.
## Result 0%

## Task Write down %Inh measured for item COc1cccc(NC(=O)NC2CCN(c3ccnc(Nc4cc(OC)c(OC)c(OC)c4)n3)C2)c1 (centres unmarked)
## Result 25%

## Task Entry COc1cccc(C(=O)Nc2cccc(Oc3ccc4nc(NC(=O)C5CC5)cn4n3)c2)c1 needs its %Inh filled in; supply it.
## Result 98%

## Task Hello, please tell me recorded %Inh for this one: COc1ccc(CNC(=O)NC2CCN(c3ccnc(Nc4ccc(F)cc4)n3)CC2)cc1
## Result 19%

## Task Indicate its recorded %Inh; the compound in question is COc1cc(Nc2nccc(N3CCC(NC(=O)c4cc5ccccc5s4)C3)n2)cc(OC)c1OC (centres unmarked)
## Result 23%

## Task Please give the documented %Inh of O=C(Nc1n[nH]c2nc(-c3ccc(O)cc3)ccc12)C1CC1
## Result 11%

## Task Recall and state the measured %Inh for COc1cc(Nc2nccc(-c3c(-c4cccc(NC(=O)c5c(F)cccc5F)c4)nn4ccccc34)n2)cc(OC)c1OC .
## Result 27%

## Task Provide measured %Inh value, entry: Cn1cc(-c2ccc3c(c2)CCN3C(=O)Cc2cccc(F)c2)c2c(N)ncnc21
## Result 46%
